// values below are reported % Inhibition
Experimental Target: bacterial NAD synthetase enzyme (Bacillus subtilis)
Sequence (P08164 2-272 limits assumed): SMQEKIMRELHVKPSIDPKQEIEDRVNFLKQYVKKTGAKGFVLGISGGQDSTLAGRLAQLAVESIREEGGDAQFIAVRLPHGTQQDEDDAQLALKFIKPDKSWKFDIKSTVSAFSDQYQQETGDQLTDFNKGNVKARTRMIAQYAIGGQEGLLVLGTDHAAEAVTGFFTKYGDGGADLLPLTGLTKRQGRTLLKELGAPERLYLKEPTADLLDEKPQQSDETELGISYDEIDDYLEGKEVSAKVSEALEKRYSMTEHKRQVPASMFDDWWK
Test Method Notes: biochemical
Type: biochemical
Test Context: compound at 0.2 mM (Table 312A)
The answer is to be given in %; state only the numeric part.

These recorded examples may help you get a feel for the data.
# Compound, Readout Value
measured = [
    ("O=C(c1ccccc1)c1ccc2[nH]c(CCCCC[n+]3ccccc3)cc2c1 [Compound 356]", 1.95),
    ("O=C(c1ccccc1)c1ccc2[nH]c(CCC[n+]3ccccc3)cc2c1 [Compound 354]", 2.96),
    ("COC(=O)c1cc2cc(OCc3ccccc3)ccc2n1CCC[n+]1ccccc1 [Compound 227]", 91.19),
]

# % Inhibition of Cc1ccc2[nH]c(CCCCCCC[n+]3cccc4ccccc43)cc2c1 [Compound 406] = 10.96

Short answer for Fc1cc(F)c2[nH]c(CCCCCC[n+]3cccc4ccccc43)cc2c1 [Compound 411] : % Inhibition was 8.84

% Inhibition for c1cc[n+](CCCCCCCCc2cc3ccccc3[nH]2)cc1 [Compound 287] is 16.01

Reported % Inhibition of O=[N+]([O-])c1cc([N+](=O)[O-])c2[nH]c(CCCCCCCC[n+]3ccccc3)cc2c1 [Compound 311] : 29.67

Lab note: measured % Inhibition of FC(F)(F)c1ccc2cc(CCCCC[n+]3ccc4ccccc4c3)[nH]c2c1 [Compound 506] was 21.74

Reported % Inhibition ( COc1ccc2[nH]c(CCCCCC[n+]3ccc4ccccc4c3)cc2c1 [Compound 591] ) = 18.59
